Each record here notes measured IC50 (read off the curve).
Target: T1, TIGIT (ECD)-hFc (human, UniProt Q495A1 22-141)
T1 construct: bought protein; also called recombinant human TIGIT (ECD)-hFc; Cat #: 10917-H02H, Sino Biological; not shown: human Fc (hFc) of the bought protein
T1 sequence: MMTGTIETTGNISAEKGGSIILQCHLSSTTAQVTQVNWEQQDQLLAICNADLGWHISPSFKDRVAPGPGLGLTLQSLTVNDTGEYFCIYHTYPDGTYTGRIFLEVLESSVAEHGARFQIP
Assay: FACS blocking assay (protocol of Example 7): serially diluted antibody pre-incubated with TIGIT (ECD)-hFc, then binding of TIGIT (ECD)-hFc to A549/human PVR cells measured; blocked ligand: human PVR [A]

70E11-VH5VL3 (antibody, human IgG1, kappa, V domains shown, humanized, human IgG1/kappa; also called 70E11H5L3) VH: QVQLVQSGAEVKKPGASVKVSCKASGYTFTSYNVHWVKQTPGQGLEWIGTIYPGNLATSYNQKFKGKATLTADKSTSTVYMELSSLRSEDTAVYYCARSGTMDYWGQGTTVTVSS VL: EIVLTQSPGTLSLSPGERATLSCRASSSISSTYLHWYQQKPGASPKLLIYNTQNLASGIPDRFSGSGSGTSYTLTISRLEPEDFAVYYCQQFGGYPLITFGAGTKLELKR | ~4 µg/mL
70E11-VH5VL2 (antibody, human IgG1, kappa, V domains shown, humanized, human IgG1/kappa) VH: QVQLVQSGAEVKKPGASVKVSCKASGYTFTSYNVHWVKQTPGQGLEWIGTIYPGNLATSYNQKFKGKATLTADKSTSTVYMELSSLRSEDTAVYYCARSGTMDYWGQGTTVTVSS VL: EIVLTQSPGTLSLSPGERATLSCRASSSISSTYLHWYQQKPGQAPKLLIYNTQNLASGIPDRFSGSGSGTSFTLTISRLEPEDFAVYYCQQFGGYPLITFGAGTKLELKR | ~4 µg/mL

Next binder, please.
Given item 70E11-VH4VL2 (antibody, human IgG1, kappa, V domains shown, humanized, human IgG1/kappa) VH: QVQLVQSGAEVKKPGASVKVSCKASGYTFTSYNVHWVKQTPGQGLEWIGTIYPGNLATSYNQKFKGRVTLTADKSTSTVYMELSSLRSEDTAVYYCARSGTMDYWGQGTTVTVSS VL: EIVLTQSPGTLSLSPGERATLSCRASSSISSTYLHWYQQKPGQAPKLLIYNTQNLASGIPDRFSGSGSGTSFTLTISRLEPEDFAVYYCQQFGGYPLITFGAGTKLELKR , the value recorded as its IC50 (read off the curve) is ~4 µg/mL
